- assay system: DnaK (Escherichia coli, UniProt P0A6Y8)
- Sequence (P0A6Y8 2-638): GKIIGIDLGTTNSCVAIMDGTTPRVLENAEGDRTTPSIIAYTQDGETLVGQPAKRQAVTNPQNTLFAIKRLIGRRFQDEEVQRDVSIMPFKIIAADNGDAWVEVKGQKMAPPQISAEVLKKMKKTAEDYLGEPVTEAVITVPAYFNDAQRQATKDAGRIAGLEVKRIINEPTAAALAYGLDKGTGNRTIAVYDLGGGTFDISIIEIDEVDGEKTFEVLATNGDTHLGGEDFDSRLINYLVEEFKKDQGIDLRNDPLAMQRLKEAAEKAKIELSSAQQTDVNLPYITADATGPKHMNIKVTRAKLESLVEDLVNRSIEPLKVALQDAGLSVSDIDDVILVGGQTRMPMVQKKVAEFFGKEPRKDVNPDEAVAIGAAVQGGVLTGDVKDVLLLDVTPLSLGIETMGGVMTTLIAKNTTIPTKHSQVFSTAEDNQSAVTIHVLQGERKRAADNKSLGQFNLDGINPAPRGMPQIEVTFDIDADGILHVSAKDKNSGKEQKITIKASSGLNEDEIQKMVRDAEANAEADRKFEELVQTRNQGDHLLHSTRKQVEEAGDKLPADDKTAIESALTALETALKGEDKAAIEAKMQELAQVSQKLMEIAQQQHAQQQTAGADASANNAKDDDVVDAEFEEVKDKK

[
  {
    "smiles text": "Nc1ncnc2c1ncn2[C@@H]1O[C@H](COP(=O)(O)OP(=O)(O)OP(=O)(O)O)[C@@H](O)[C@H]1O",
    "Kd (µM)": 0.398
  }
]
